- System: LOX IMVI melanoma
- assay_procedure: NCI tumour cell line growth inhibition, 48 h
readout: TGI (µM)
Answers are plain numbers, in µM.

Each of the following entries comes with a recorded value; kindly state TGI for each.
1. Cc1ccc(Oc2nc3ccccc3cc2-c2nnc(Cn3c(COc4ccccc4)nc4ccccc43)o2)cc1
2. CCC[CH2][Sn]1([CH2]CCC)[O]C(=O)CN=Cc2ccccc2[O]1
3. COc1ccc2c(c1)-c1nn(CCN(C)C)c3ccc(C(=O)NCCCN(C)CCCNC(=O)c4ccc5c6c(nn5CCN(C)C)-c5cc(OC)ccc5Nc46)c(c13)N2
4. Cc1ccc(/C(=C/C=C(C#N)C#N)Sc2ccccn2)cc1
5. CCC(C)C1(O)OC2CC3(C)OC(=CC3=O)/C(C)=C\C3OC(=O)C1(C)C32 (stereo not given)

4.32
0.527
0.898
4.05
49.4

Give TGI for all compounds that follow.
1. COc1cc2c(cc1Cl)n([O-])c(C#N)c(N1CCN(c3ccc([N+](=O)[O-])cc3)CC1)[n+]2=O
2. CCN1CCC(CC(=O)Nc2n[nH]c3nc(-c4cccs4)c(Br)cc23)CC1
3. CNCCOC(=O)/C=C1/CCC2C(C(O)CC3C(C)(C(=O)OC)CCCC23C)C1C (stereo not given)

73.6
14.1
0.042
